Molecular target: T1, GLD-1-STAR (C. elegans, UniProt Q17339 135-336)
T1 sequence: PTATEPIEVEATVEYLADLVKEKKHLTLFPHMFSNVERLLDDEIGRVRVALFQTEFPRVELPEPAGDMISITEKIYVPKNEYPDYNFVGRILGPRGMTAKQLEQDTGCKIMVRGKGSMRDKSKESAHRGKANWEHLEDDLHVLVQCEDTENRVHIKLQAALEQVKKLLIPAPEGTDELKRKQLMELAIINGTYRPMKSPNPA
Assay: fluorescence polarization; 10 mM Tris pH 8.0, 25 mM NaCl, 0.1 mM EDTA, 0.1 mg/mL tRNA, 5 ug/mL heparin, 0.01% IGEPAL CA630, room temperature, 3 h; EMSA gel 6% native, 0.5x TBE, 4 C
Conditions: protein: recombinant; tags: MBP fusion; chain copies: 2; label: 5' 32P (EMSA), 5' fluorescein (FP)
readout-type: Kd (nM)
Only the number, expressed in nM, is required.

Q: # get_value(readout='Kd', item= UAUUUAAUUUCUUAUCUACUCAUAUCUA (ssRNA) [WT TGE 28-mer] )
Ans: 32
